Each recorded value in this set is attributed to patent USRE48461E1.

Tested on: AR mRNA
Assay: Dose-dependent antisense inhibition of human AR in HuVEC cells (electroporation, qRT-PCR RTS3559, IC50)
Type: cell-based
Details: Table 33; 750.0 nM, HuVEC, electroporation, approximately 16 hours
Description: After a treatment period of approximately 16 hours, RNA was isolated from the cells and AR mRNA levels were measured by quantitative real-time PCR. Human AR primer probe set RTS3559 was used to measure mRNA levels. AR mRNA levels were adjusted according to total RNA content, as measured by RIBOGREEN®. […] After a treatment period of approximately 16 hours, RNA was isolated from the cells and AR mRNA levels were measured by quantitative real-time PCR. […]
Oligonucleotides are written 5' to 3', each unit as a sugar letter and its base; * is a phosphorothioate linkage, no mark a phosphodiester; rarer units and linkages stand in square brackets, end groups in braces. Plain capitals give the bases only. k = constrained ethyl (cEt); [5mC] = 5-methylcytosine; d = 2'-deoxy (DNA)
experimental-endpoint: percent inhibition of AR, 750.0 nM (%)

>>> print(df.to_string())
                                   substance  target_entity  unit_spec  assay_value
 0  583847 (kA*k[5mC]*kA*dG*d[5mC]*dG*dG*dG*dT*dG*dG*dA*dA*k[5mC]*kT*k[5mC]; antisense) [compound 583847]        AR mRNA          %           60
 1  549372 (kA*kA*kG*dT*dT*dG*dT*dA*dG*dT*dA*dG*dT*k[5mC]*kG*k[5mC]) [compound 549372]        AR mRNA          %           64
 2  583843 (kG*kT*kA*d[5mC]*dA*dT*dG*d[5mC]*dA*dA*dT*d[5mC]*d[5mC]*k[5mC]*k[5mC]*k[5mC]; antisense) [compound 583843]        AR mRNA          %           67
 3  583851 (kG*kT*kG*dG*dG*dA*d[5mC]*dG*d[5mC]*dA*d[5mC]*dA*dG*k[5mC]*kG*kG; antisense) [compound 583851]        AR mRNA          %           54
 4  583866 (kT*k[5mC]*kT*dT*d[5mC]*dA*dG*dT*dG*d[5mC]*dT*d[5mC]*dT*kT*kG*k[5mC]; antisense) [compound 583866]        AR mRNA          %           71
 5  583920 (kT*kA*kG*dT*dA*dG*dT*d[5mC]*dG*d[5mC]*dG*dA*d[5mC]*kT*k[5mC]*kT; antisense) [compound 583920]        AR mRNA          %           50
 6  583893 (kA*kG*k[5mC]*dA*dG*d[5mC]*d[5mC]*dT*dA*dG*dG*d[5mC]*dT*k[5mC]*kT*k[5mC]; antisense) [compound 583893]        AR mRNA          %           62
 7  583969 (k[5mC]*k[5mC]*kT*dT*d[5mC]*dT*dT*d[5mC]*dG*dG*d[5mC]*dT*dG*kT*kG*kA; antisense) [compound 583969]        AR mRNA          %           66
 8  583853 (kT*kG*k[5mC]*dA*dT*dT*d[5mC]*dG*dG*d[5mC]*d[5mC]*dA*dA*kT*kG*kG; antisense) [compound 583853]        AR mRNA          %           70
 9  583919 (kG*kT*kA*dG*dT*d[5mC]*dG*d[5mC]*dG*dA*d[5mC]*dT*d[5mC]*kT*kG*kG; antisense) [compound 583919]        AR mRNA          %           85
10  583918 (kA*kG*kT*d[5mC]*dG*d[5mC]*dG*dA*d[5mC]*dT*d[5mC]*dT*dG*kG*kT*kA) [compound 583918]        AR mRNA          %           68
11  549458 (kG*kT*kT*dG*dA*dT*dT*dT*dA*dA*dT*dG*dG*kT*kT*kG) [compound 549458]        AR mRNA          %           90
12  583862 (kG*k[5mC]*kT*d[5mC]*dT*dT*dG*d[5mC]*d[5mC]*dT*dG*d[5mC]*dG*k[5mC]*kT*kG; antisense) [compound 583862]        AR mRNA          %           64
